- Tested on: CT26 murine colon cancer cells
- procedure.text: MTT assay in murine cell line CT26
- Type: cell-based
- settings: 72 h exposure
observed.property: IC50 (nM)
Please reply with the bare figure in nM and do not write the unit itself.

Lab note: measured IC50 of N.N.[Cl][Pt][Cl] [Cisplatin] was 1850
